target: Peroxisome proliferator-activated receptor gamma (Homo sapiens, UniProt P37231)
Sequence (P37231 whole entry): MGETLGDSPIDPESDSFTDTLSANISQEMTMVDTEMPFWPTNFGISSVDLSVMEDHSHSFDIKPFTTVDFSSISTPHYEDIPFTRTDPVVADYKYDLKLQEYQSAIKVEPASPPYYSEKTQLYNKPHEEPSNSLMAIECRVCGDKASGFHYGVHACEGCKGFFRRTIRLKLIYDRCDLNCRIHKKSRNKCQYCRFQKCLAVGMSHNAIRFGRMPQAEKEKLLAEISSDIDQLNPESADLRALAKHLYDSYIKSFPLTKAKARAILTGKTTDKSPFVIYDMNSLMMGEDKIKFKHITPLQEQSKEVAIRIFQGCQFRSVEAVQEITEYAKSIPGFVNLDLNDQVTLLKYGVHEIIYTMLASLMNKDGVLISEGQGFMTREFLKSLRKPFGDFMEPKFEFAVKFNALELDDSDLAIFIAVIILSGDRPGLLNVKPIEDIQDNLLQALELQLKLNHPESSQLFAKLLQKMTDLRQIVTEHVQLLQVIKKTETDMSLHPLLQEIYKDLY
property label: EC50 (µM)
// note: answer is a bare numeric in µM

Asked: Sample O=C(O)CCCc1cc2cc(Cl)ccc2n1S(=O)(=O)c1ccc2ncsc2c1 — what was its EC50?
Given back: 3.27

###

target: Peroxisome proliferator-activated receptor alpha (Homo sapiens) (UniProt Q07869); test: Transactivation of human GAL4-fused PPARalpha LBD expressed in African green monkey COS7 cells co-expressing 5Gal4 pGL3 TK Luc after overnight incubation by luciferase reporter gene assay relative to fenofibric acid; type: cell-based
Sequence (Q07869 whole entry, the tested form may be a part): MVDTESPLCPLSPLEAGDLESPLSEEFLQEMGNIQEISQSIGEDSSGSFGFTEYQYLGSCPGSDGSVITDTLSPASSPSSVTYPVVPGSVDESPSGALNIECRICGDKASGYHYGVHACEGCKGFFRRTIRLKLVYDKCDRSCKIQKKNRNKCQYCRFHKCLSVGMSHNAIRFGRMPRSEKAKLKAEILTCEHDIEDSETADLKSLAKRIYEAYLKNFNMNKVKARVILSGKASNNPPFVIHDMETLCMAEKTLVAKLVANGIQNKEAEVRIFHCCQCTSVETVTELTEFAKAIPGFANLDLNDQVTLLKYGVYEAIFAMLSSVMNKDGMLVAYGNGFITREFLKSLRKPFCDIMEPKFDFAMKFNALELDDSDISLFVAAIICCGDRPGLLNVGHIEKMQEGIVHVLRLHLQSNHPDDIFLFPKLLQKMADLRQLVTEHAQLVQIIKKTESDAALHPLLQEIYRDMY
Param label: returns 1 when Emax < 60%, returns 0 otherwise, including exact equality.

Worked set:
{"smiles representation": "COc1cccc(S(=O)(=O)n2c(CCCC(=O)O)cc3cc(C(F)(F)F)ccc32)c1", "category label": 1}
{"smiles representation": "O=C(O)CCCc1cc2cc(C(F)(F)F)ccc2n1S(=O)(=O)c1ccccc1Cl", "category label": 0}
{"smiles representation": "O=C(O)CCc1cc2cc(Cl)ccc2n1S(=O)(=O)c1ccccc1", "category label": 0}
{"smiles representation": "O=C(O)CCCc1cc2cc(Cl)ccc2n1S(=O)(=O)c1ccc2c(c1)OCO2", "category label": 0}
{"smiles representation": "O=C(O)CCCCc1cc2cc(Cl)ccc2n1S(=O)(=O)c1ccccc1", "category label": 1}

Asked: Given O=C(O)CCCc1cc2cc(C(F)(F)F)ccc2n1S(=O)(=O)c1ccc2ncsc2c1 , is recorded Emax strictly lower than 60%?
Given back: 0

Asked: Quick one: O=C(O)CCCc1cc2cc(C(F)(F)F)ccc2n1S(=O)(=O)c1ccccc1
Given back: 1

Asked: Record: COc1cccc(S(=O)(=O)n2c(CCCC(=O)O)cc3cc(Cl)ccc32)c1
Given back: 1

Asked: Next record, please: Cc1nc2cc(S(=O)(=O)n3c(CCCC(=O)O)cc4cc(Cl)ccc43)ccc2s1
Given back: 1

Asked: Would you mind doing CC(C)(CCc1cc2cc(Cl)ccc2n1S(=O)(=O)c1ccccc1)C(=O)O as well?
Given back: 0

Asked: One more molecule: O=C(O)COCc1cc2cc(Cl)ccc2n1S(=O)(=O)c1ccccc1
Given back: 1

Asked: Again, but for Cc1ccc2c(c1)cc(CCCC(=O)O)n2S(=O)(=O)c1ccccc1
Given back: 1

Asked: What do you have for O=C(O)CCCc1cc2cc(Cl)ccc2n1S(=O)(=O)c1cccc2ccccc12 ?
Given back: 0

Asked: Queued: COc1ccc2c(c1)cc(CCCC(=O)O)n2S(=O)(=O)c1ccccc1
Given back: 1

Asked: Now give it for O=C(O)CCCc1cc2cc(C(F)(F)F)ccc2n1S(=O)(=O)c1cccc(OC(F)(F)F)c1 too.
Given back: 1

Asked: Same question, O=C(O)CCCc1cc2cc(Cl)ccc2n1S(=O)(=O)c1ccc2ccccc2c1 this time
Given back: 1

Asked: // repeat for O=C(O)CCCc1cc2cc(C(F)(F)F)ccc2n1S(=O)(=O)c1ccc(OC(F)(F)F)cc1 and report
Given back: 1

Asked: Quick one: COc1ccc(S(=O)(=O)n2c(CCCC(=O)O)cc3cc(Cl)ccc32)cc1
Given back: 1

Asked: Repeat with Nc1nc2ccc(S(=O)(=O)n3c(CCCC(=O)O)cc4cc(Cl)ccc43)cc2o1
Given back: 1

Asked: Ok, now O=C(O)CCCc1cc2cc(Cl)ccc2n1S(=O)(=O)c1ccccc1
Given back: 1

Asked: Then Cc1ccc(S(=O)(=O)n2c(CCCC(=O)O)cc3cc(Cl)ccc32)cc1 ?
Given back: 1

Asked: Okay, and O=C(O)CCCc1cc2cc(Cl)ccc2n1S(=O)(=O)c1ccc2nc[nH]c2c1 ?
Given back: 1

Asked: Repeat with Nc1nc2ccc(S(=O)(=O)n3c(CCCC(=O)O)cc4cc(Cl)ccc43)cc2s1
Given back: 1

Asked: Also check O=C(O)CCCc1cc2cc(Cl)ccc2n1S(=O)(=O)c1ccc2nsnc2c1
Given back: 0
